System: FADU (Head and Neck Carcinoma)
METHOD: Bliss excess, mean over the matrix (fraction); higher = more synergy;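 also: after 72 h of two-drug dosing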
Entries and their Bliss excess
Could you keep your reply to the number by itself?

| MOLECULE | Bliss excess |
| --- | --- |
| C=CCn1c(=O)c2cnc(Nc3ccc(N4CCN(C)CC4)cc3)nc2n1-c1cccc(C(C)(C)O)n1 [AZD1775] + C1CN(CCC1(C(=O)N[C@@H](CCO)C2=CC=C(C=C2)Cl)N)C3=NC=NC4=C3C=CN4 [Capivasertib] (first compound max 3 µM, partner max 3 µM) | 0.0615 |

Consider the record given below.
Query :: For the molecule CN(CCO)CC[C@H](CSc1ccccc1)Nc1ccc(S(=O)(=O)NC(=O)c2ccc(N3CCC([C@@H](O)c4ccccc4-c4ccc(Cl)cc4)CC3)cc2)cc1S(=O)(=O)C(F)(F)F [AZD4320] + C=CCn1c(=O)c2cnc(Nc3ccc(N4CCN(C)CC4)cc3)nc2n1-c1cccc(C(C)(C)O)n1 [AZD1775] (first compound max 1 µM, partner max 1 µM) , what Bliss excess is on record?
Result :: 0.0213

###

System: CAL-62 (Thyroid Gland Carcinoma)
METHOD: Bliss excess, mean over the matrix (fraction); higher = more synergy
Entries and their Bliss excess

| MOLECULE | TARGET UNDER TEST | RECORDED RESULT |
| --- | --- | --- |
| CC(=O)c1c(C)c2cnc(Nc3ccc(N4CCNCC4)cn3)nc2n(C2CCCC2)c1=O [Palbociclib] + CC1(C)CCC(CN2CCN(c3ccc(C(=O)NS(=O)(=O)c4ccc(NCC5CCOCC5)c([N+](=O)[O-])c4)c(Oc4cnc5[nH]ccc5c4)c3)CC2)=C(c2ccc(Cl)cc2)C1 [Venetoclax] (first compound max 10 µM, 7x7, partner max 1 µM) | CAL-62 (Thyroid Gland Carcinoma) | -0.029 |
| Cc1cc2ncnn2cc1Nc1ncc2c(n1)n(C1CCOCC1)c(=O)n2C [AZD7648] + C[C@@H]1COCCN1C2=NC(=NC(=C2)C3(CC3)[S@](=N)(=O)C)C4=C5C=CNC5=NC=C4 [AZD6738] (first compound max 10 µM, 7x7, partner max 10 µM) | CAL-62 (Thyroid Gland Carcinoma) | 0.0264 |
| Cc1cc2ncnn2cc1Nc1ncc2c(n1)n(C1CCOCC1)c(=O)n2C [AZD7648] + COc1cc([C@@H]2c3cc4c(cc3[C@@H](O[C@@H]3O[C@@H]5CO[C@@H](C)O[C@H]5[C@H](O)[C@H]3O)[C@H]3COC(=O)[C@H]23)OCO4)cc(OC)c1O [Etoposide] (first compound max 10 µM, 7x7, partner max 10 µM) | CAL-62 (Thyroid Gland Carcinoma) | 0.127 |

Query :: For the molecule C[C@@H](c1ccc2nccn2c1)n1nnc2ncc(-c3cnn(C)c3)nc21 [Savolitinib] + Cc1c2c(nn1C)CSCc1cc(n(C)n1)CSc1cc(c3ccccc3c1)OCCCc1c(C(=O)O)n(C)c3c-2c(Cl)ccc13 [AZD5991] (first compound max 1 µM, 7x7, partner max 1 µM) , what Bliss excess is on record?
Result :: -0.022

Query :: Please give the result for Cc1c2c(nn1C)CSCc1cc(n(C)n1)CSc1cc(c3ccccc3c1)OCCCc1c(C(=O)O)n(C)c3c-2c(Cl)ccc13 [AZD5991] + Cn1cnc2c(F)c(Nc3ccc(Br)cc3Cl)c(C(=O)NOCCO)cc21 [Selumetinib] (first compound max 1 µM, 7x7, partner max 3 µM) too.
Result :: -0.0174

Query :: Please give the result for CC1(C)CCC(CN2CCN(c3ccc(C(=O)NS(=O)(=O)c4ccc(NCC5CCOCC5)c([N+](=O)[O-])c4)c(Oc4cnc5[nH]ccc5c4)c3)CC2)=C(c2ccc(Cl)cc2)C1 [Venetoclax] + Cc1cc2ncnn2cc1Nc1ncc2c(n1)n(C1CCOCC1)c(=O)n2C [AZD7648] (first compound max 1 µM, 7x7, partner max 10 µM) too.
Result :: -0.025

Query :: Please give the result for CN(C)CCCOc1ccc(-c2ccc3ncc4c(c3c2)n(C2CCOCC2)c(=O)n4C)cn1 [AZD0156] + C=CCn1c(=O)c2cnc(Nc3ccc(N4CCN(C)CC4)cc3)nc2n1-c1cccc(C(C)(C)O)n1 [AZD1775] (first compound max 1 µM, partner max 1 µM) too.
Result :: -0.0006

Query :: Please give the result for COc1nnc2ccc(N3CCC(c4ccc(OCCN5CCN(C)C(=O)[C@H]5C)cc4)CC3)nn12 [AZD5153] + Cc1c2c(nn1C)CSCc1cc(n(C)n1)CSc1cc(c3ccccc3c1)OCCCc1c(C(=O)O)n(C)c3c-2c(Cl)ccc13 [AZD5991] (first compound max 1 µM, 7x7, partner max 1 µM) too.
Result :: -0.057

###

Test system: L-1236 (Hodgkin's Lymphoma)
METHOD: Bliss excess, mean over the matrix (fraction); higher = more synergy
PROPERTY: Bliss excess
Could you keep your reply to the number by itself?

Solved cases (5 shown):
| COMPOUND | TARGET UNDER TEST | RECORDED RESULT |
| --- | --- | --- |
| COc1nnc2ccc(N3CCC(c4ccc(OCCN5CCN(C)C(=O)[C@H]5C)cc4)CC3)nn12 [AZD5153] + C=CCn1c(=O)c2cnc(Nc3ccc(N4CCN(C)CC4)cc3)nc2n1-c1cccc(C(C)(C)O)n1 [AZD1775] (first compound max 1 µM, partner max 1 µM) | L-1236 (Hodgkin's Lymphoma) | -0.0138 |
| Cc1cc2ncnn2cc1Nc1ncc2c(n1)n(C1CCOCC1)c(=O)n2C [AZD7648] + C=CCn1c(=O)c2cnc(Nc3ccc(N4CCN(C)CC4)cc3)nc2n1-c1cccc(C(C)(C)O)n1 [AZD1775] (first compound max 10 µM, partner max 1 µM) | L-1236 (Hodgkin's Lymphoma) | -0.0686 |
| NC1(C(=O)N[C@@H](CCO)c2ccc(Cl)cc2)CCN(c2ncnc3[nH]ccc23)CC1 [Capivasertib] + CC(=O)c1c(C)c2cnc(Nc3ccc(N4CCNCC4)cn3)nc2n(C2CCCC2)c1=O [Palbociclib] (first compound max 10 µM, 7x7, partner max 10 µM) | L-1236 (Hodgkin's Lymphoma) | -0.0829 |
| Cc1cc2ncnn2cc1Nc1ncc2c(n1)n(C1CCOCC1)c(=O)n2C [AZD7648] + CN(C)CCCOc1ccc(-c2ccc3ncc4c(c3c2)n(C2CCOCC2)c(=O)n4C)cn1 [AZD0156] (first compound max 10 µM, 7x7, partner max 1 µM) | L-1236 (Hodgkin's Lymphoma) | 0.0025 |
| C=CCn1c(=O)c2cnc(Nc3ccc(N4CCN(C)CC4)cc3)nc2n1-c1cccc(C(C)(C)O)n1 [AZD1775] + C[C@@H]1COCCN1C2=NC(=NC(=C2)C3(CC3)[S@](=N)(=O)C)C4=C5C=CNC5=NC=C4 [AZD6738] (first compound max 1 µM, partner max 10 µM) | L-1236 (Hodgkin's Lymphoma) | -0.032 |

Query :: For the compound COc1cccc(OCCCN)c1-c1cc(Nc2cnc(C#N)cn2)n[nH]1 [Prexasertib] + Cc1cc2ncnn2cc1Nc1ncc2c(n1)n(C1CCOCC1)c(=O)n2C [AZD7648] (first compound max 1 µM, 7x7, partner max 10 µM) , what Bliss excess is on record?
Result :: -0.046

Query :: Please give the result for Cc1c2c(nn1C)CSCc1cc(n(C)n1)CSc1cc(c3ccccc3c1)OCCCc1c(C(=O)O)n(C)c3c-2c(Cl)ccc13 [AZD5991] + CN(C)CCCOc1ccc(-c2ccc3ncc4c(c3c2)n(C2CCOCC2)c(=O)n4C)cn1 [AZD0156] (first compound max 1 µM, 7x7, partner max 1 µM) too.
Result :: 0.0295

Query :: Please give the result for N#Cc1cnc(Nc2cc(NC[C@H]3CNCCO3)c(C(F)(F)F)cn2)cn1 [SRA737] + O=c1[nH]cc(F)c(=O)[nH]1 [5-Fluorouracil] (first compound max 10 µM, 7x7, partner max 20 µM) too.
Result :: -0.0358

###

Test system: TE-8 (Esophageal Squamous Cell Carcinoma)
METHOD: Bliss excess, mean over the matrix (fraction); higher = more synergy
PROPERTY: Bliss excess

Solved cases (3 shown):
| COMPOUND | PROPERTY | RECORDED RESULT |
| --- | --- | --- |
| CN(CCO)CC[C@H](CSc1ccccc1)Nc1ccc(S(=O)(=O)NC(=O)c2ccc(N3CCC([C@@H](O)c4ccccc4-c4ccc(Cl)cc4)CC3)cc2)cc1S(=O)(=O)C(F)(F)F [AZD4320] + Cn1cnc2c(F)c(Nc3ccc(Br)cc3Cl)c(C(=O)NOCCO)cc21 [Selumetinib] (first compound max 1 µM, 7x7, partner max 3 µM) | Bliss excess | -0.0628 |
| CS(=O)(=O)CCNCc1ccc(-c2ccc3ncnc(Nc4ccc(OCc5cccc(F)c5)c(Cl)c4)c3c2)o1 [Lapatinib] + NC1(c2ccc(-c3nc4ccn5c(=O)[nH]nc5c4cc3-c3ccccc3)cc2)CCC1 [MK-2206] (first compound max 10 µM, 7x7, partner max 10 µM) | Bliss excess | -0.0004 |
| C[C@@H]1COCCN1c1cc(C2([S@](C)(=N)=O)CC2)nc(-c2ccnc3[nH]ccc23)n1 [AZD6738] + Nc1ccn([C@@H]2O[C@H](CO)[C@@H](O)C2(F)F)c(=O)n1 [Gemcitabine] (first compound max 10 µM, 7x7, partner max 0.3 µM) | Bliss excess | 0.0028 |

Query :: Checklist item: Bliss excess tested on TE-8 (Esophageal Squamous Cell Carcinoma), entry CC1(C)CCC(CN2CCN(c3ccc(C(=O)NS(=O)(=O)c4ccc(NCC5CCOCC5)c([N+](=O)[O-])c4)c(Oc4cnc5[nH]ccc5c4)c3)CC2)=C(c2ccc(Cl)cc2)C1 [Venetoclax] + COc1cc(Nc2ncc3c(n2)-c2ccc(Cl)cc2C(c2c(F)cccc2OC)=NC3)ccc1C(=O)O [Alisertib] (first compound max 1 µM, 7x7, partner max 10 µM) , value?
Result :: 0.0171

Query :: Please give the result for CC(=O)Nc1cccc(-n2c(=O)n(C3CC3)c(=O)c3c(Nc4ccc(I)cc4F)n(C)c(=O)c(C)c32)c1 [Trametinib] + Cc1nc(-c2cn3c(n2)-c2ccc(-c4cnn(C(C)(C)C(N)=O)c4)cc2OCC3)n(C(C)C)n1 [Taselisib] (first compound max 1 µM, 7x7, partner max 10 µM) too.
Result :: 0.129

Query :: Please give the result for CN(CCO)CC[C@H](CSc1ccccc1)Nc1ccc(S(=O)(=O)NC(=O)c2ccc(N3CCC([C@@H](O)c4ccccc4-c4ccc(Cl)cc4)CC3)cc2)cc1S(=O)(=O)C(F)(F)F [AZD4320] + CS(=O)(=O)CCNCc1ccc(-c2ccc3ncnc(Nc4ccc(OCc5cccc(F)c5)c(Cl)c4)c3c2)o1 [Lapatinib] (first compound max 1 µM, 7x7, partner max 10 µM) too.
Result :: 0.0281
